PROTOCOL_TEXT: protein stability index of a GFP-peptide fusion (yeast GPS) (PSI 1-4); higher = more stable; sorted into four equal gates, so the index is relative within each strain
CONDITION: doa10∆
Rule: protein stability index of 3 or more gives true (1); anything lower gives false (0).

{"columns": ["SEQUENCE_DATA", "ASSIGNED_LABEL"],
 "data": [
  ["TTMFENTGWSCSRIIKI [RGR1]", "true (1)"],
  ["DENKAGATSKPAFSFGA [YJL041W/NSP1]", "true (1)"],
  ["EFETPTFLVSNDDEVSQ [RPN14]", "false (0)"],
  ["IKLDRWLMEGSYQKAWD [RPN12]", "false (0)"],
  ["LPPPPPPPGLDELETKA [PRP8]", "true (1)"],
  ["IFHPMIHYSWSFILYYR [YML103C/NUP188]", "false (0)"],
  ["HNLHPQIGQVPLAPAPI [SNF5]", "false (0)"],
  ["FDKDLERDTFSDFTFPE [DIS3]", "false (0)"],
  ["KRSGVIETVDDKLKDIV [ITC1]", "true (1)"],
  ["KIKPYVRSFSKALDELK [LRP1]", "false (0)"],
  ["TGGTRTKTPGPGGQAAL [RPS14A]", "true (1)"],
  ["TKRLGTPESVKPANASH [RGR1]", "false (0)"],
  ["VDSISLHKIFYKVLKNN [YCG1]", "false (0)"]
]}
